In this section, each of the molecules is paired with its reported RP-LC retention time.
- EXPERIMENT_DESCRIPTION: gradient 5% acetonitrile 3 min, to 50% in 2 min, to 85% in 15 min, held 3 min, 100 µL/min
- TEST_PARAMETERS: column: Zorbax Extend-C18 2.1 x 50 mm; eluents: water / acetonitrile, 0.1% formic acid
Just the number please, in s, no unit attached.

Here's what some known entries look like.
[
  {
    "MOLECULE": "Cn1cc(-c2nc(C(=O)NC3CCCCCC3)cs2)c2cccnc21",
    "MEASURE": "RP-LC retention time",
    "VALUE_REPORTED": 1040
  },
  {
    "MOLECULE": "Cc1ccc(-c2nnc3ccc(SCC(=O)OCc4ccccc4)nn23)cc1",
    "MEASURE": "RP-LC retention time",
    "VALUE_REPORTED": 840
  },
  {
    "MOLECULE": "CCOC(=O)C(=O)Nc1ccc(OC)c(OC)c1",
    "MEASURE": "RP-LC retention time",
    "VALUE_REPORTED": 650
  },
  {
    "MOLECULE": "Cc1ccc(N2CCC(NC(=O)NC(C)C)C2=O)cc1 (stereo not drawn)",
    "MEASURE": "RP-LC retention time",
    "VALUE_REPORTED": 688
  },
  {
    "MOLECULE": "CC1CCN(c2nn(CC(=O)Nc3ccccc3F)c(=O)c3ccccc23)CC1",
    "MEASURE": "RP-LC retention time",
    "VALUE_REPORTED": 1090
  }
]

Fill blank: measured RP-LC retention time of the molecule "Cc1ccc(Nc2c(-c3ccc(Cl)cc3)nc3cnccn23)c(Br)c1" is ____. 1170

# repeat for "O=C(c1cccc2[nH]cc(CN3CCCC3)c12)N1CCN(c2ccccc2)CC1" 706

# repeat for "Cc1[nH]c(=O)nc(N/N=C/c2ccc(Cl)cc2)c1C(=O)Nc1ccc(Cl)cc1" 1020

# repeat for "Cc1ccc(C)c(N2CCN(c3ccnc(SCC(=O)Nc4cccc(C)c4C)n3)CC2)c1" 1000

# repeat for "Cn1cc(C(=O)NCc2ccccc2F)c(S(=O)(=O)N2CCSCC2)n1" 865

# repeat for "Cc1oc(-c2[nH]ncc2C(=O)N(C)C)cc1S(=O)(=O)N1CCOCC1" 604

* * *

In this section, each of the molecules is paired with its reported RP-LC retention time.
- EXPERIMENT_DESCRIPTION: gradient 5% acetonitrile 3 min, to 50% in 2 min, to 85% in 15 min, held 3 min, 100 µL/min
- TEST_PARAMETERS: column: Zorbax Extend-C18 2.1 x 50 mm; eluents: water / acetonitrile, 0.1% formic acid
Just the number please, in s, no unit attached.

[
  {
    "MOLECULE": "COc1ccc(-c2noc(C3CCCN3C(=O)Nc3ccc(OC)c(OC)c3)n2)cc1 (stereo not drawn)",
    "RP-LC retention time, s": 952
  },
  {
    "MOLECULE": "CCN(CC)S(=O)(=O)c1ccc(NC(=O)N2CCC(C(=O)Nc3ccc(Cl)cc3)CC2)s1",
    "RP-LC retention time, s": 931
  }
]

Now, please, on to the next molecule.
Fill blank: measured RP-LC retention time of the molecule "Cc1ccc2[nH]cc(CCNC(=O)CC3CCN(C(=O)NC4CCCCC4)CC3)c2c1" is ____. 808
